# key: entry, value: Percentage inhibition of ligand binding, Adrenergic α2B
biological target: human recombinant adrenergic α2B receptor (Homo sapiens); construct: expressed in transfected cells; host or cells: CHO-K1; assay: Radioligand binding, adrenergic α2B ([3H]Rauwolscine); conditions: compound at 0.03 μM; [3H]Rauwolscine; repeat assays, each datapoint shown; 0.03 µM
Sequence (P18089 whole entry): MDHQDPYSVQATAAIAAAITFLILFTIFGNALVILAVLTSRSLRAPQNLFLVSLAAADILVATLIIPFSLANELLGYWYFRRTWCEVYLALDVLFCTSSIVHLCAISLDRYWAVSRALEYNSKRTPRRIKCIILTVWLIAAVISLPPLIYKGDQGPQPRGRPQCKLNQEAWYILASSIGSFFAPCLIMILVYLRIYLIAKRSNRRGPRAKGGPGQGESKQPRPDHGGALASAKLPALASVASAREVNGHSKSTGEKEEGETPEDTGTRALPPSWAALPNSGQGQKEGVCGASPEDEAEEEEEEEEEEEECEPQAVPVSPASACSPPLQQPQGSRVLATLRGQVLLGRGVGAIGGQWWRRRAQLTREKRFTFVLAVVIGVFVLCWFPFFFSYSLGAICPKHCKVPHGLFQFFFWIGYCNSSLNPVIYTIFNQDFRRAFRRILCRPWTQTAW
For clarity, give the value followed by its unit.

Observe how each entry below is paired with its result.
Cc1cnc2c(c1)c1c(n2CC(O)c2ccncc2)CCN(C)C1 (single isomer, unassigned) [55b] | 67%
Cc1ccc2c(c1)c1c(n2CC(O)c2cccnc2)CCNC1 (stereo not shown) [compound 9] | 36%
Cc1ccc2c(c1)c1c(n2CC(O)c2cccnc2)CN(C)CC1 (single isomer, unassigned) [43a] | 51%

Next item in the queue.
Given item Cc1cnc2c(c1)c1c(n2CC(O)c2ccncc2)CCN(C)C1 (stereo not shown) [compound 55] , the value recorded as its Percentage inhibition of ligand binding, Adrenergic α2B is 63%

---

target: human recombinant adrenergic α1D receptor (Homo sapiens, UniProt P25100); construct: expressed in transfected cells; host or cells: HEK-293; experiment: Radioligand binding, adrenergic α1D ([3H]Prazosin); conditions: read-out: Percentage inhibition of ligand binding, Adrenergic α1D (0.1 μM), compound at 0.1 μM; [3H]Prazosin; repeat datapoints each shown
Sequence (P25100 whole entry): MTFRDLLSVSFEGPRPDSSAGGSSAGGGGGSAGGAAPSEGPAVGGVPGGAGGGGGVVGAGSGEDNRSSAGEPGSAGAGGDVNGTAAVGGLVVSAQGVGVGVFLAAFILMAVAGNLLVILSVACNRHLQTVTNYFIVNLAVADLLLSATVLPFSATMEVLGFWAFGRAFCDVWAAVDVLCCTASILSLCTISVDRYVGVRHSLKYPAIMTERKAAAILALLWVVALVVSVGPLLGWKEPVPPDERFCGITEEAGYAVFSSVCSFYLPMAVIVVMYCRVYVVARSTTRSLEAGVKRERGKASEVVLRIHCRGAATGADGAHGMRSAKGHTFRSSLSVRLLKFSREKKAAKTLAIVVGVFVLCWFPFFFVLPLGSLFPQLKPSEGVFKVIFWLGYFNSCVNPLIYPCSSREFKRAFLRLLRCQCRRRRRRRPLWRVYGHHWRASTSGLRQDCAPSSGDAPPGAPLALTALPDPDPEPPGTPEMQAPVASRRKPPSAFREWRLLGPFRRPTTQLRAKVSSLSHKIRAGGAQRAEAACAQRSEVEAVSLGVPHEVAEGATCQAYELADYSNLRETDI
Decide using inhibition at 0.1 µM: a value greater than or equal to 30% is 1, a smaller one is -1.

C=C(Cn1c2c(c3cc(Cl)ccc31)CN(C)CC2)c1ccncc1 [compound 116] | -1

Tell me whether inhibition at 0.1 µM is at least 30% here: COCc1ccc(/C(C)=C/n2c3c(c4cc(C)ccc42)CN(C)CC3)cn1 [compound 126] 1

Tell me whether inhibition at 0.1 µM is at least 30% here: COc1ccc(C(C)(O)Cn2c3c(c4cc(C)ccc42)CN(C)CC3)cc1F (stereo not drawn) [II-163] -1

Tell me whether inhibition at 0.1 µM is at least 30% here: Cc1ccc2c(c1)c1c(n2CC(C)(F)c2ccncc2)CCN(C)C1 (stereo not drawn) [compound 102] -1

---

# key: entry, value: inhibition at 0.1 µM
target: human recombinant adrenergic α2A receptor (Homo sapiens, UniProt P08913); construct: expressed in transfected cells; host or cells: insect Sf9 cells; assay: Radioligand binding, adrenergic α2A ([3H]MK-912); details: 0.1 μM compound; read-out: Percentage inhibition of ligand binding, Adrenergic α2A
State just the number; it will be interpreted in %.

Observe how each entry below is paired with its result.
Cc1ccc2c(c1)c1c(n2CCc2cnc3ccccc3c2)CCN(C)C1 [compound 320] | 66
Cc1ccc2c(c1)c1c(n2C(C)C(O)c2ccncc2)CCN(C)C1 (stereo not drawn) [II-98a] | 12
CCc1ccc(/C(C)=C/n2c3c(c4cc(C)ccc42)CN(C)CC3)cn1 [II-77] | 43
C/C(=C/n1c2c(c3cc(C)ccc31)CN(C)CC2)c1cccc2[nH]ncc12 [compound 290] | 80
C/C(=C\n1c2c(c3cc(C)ccc31)CN(C)CC2)c1ccc2cnccc2c1 [compound 311] | 91
C=CCC1(C)CN(C)Cc2c1n(/C=C(\C)c1ccc(F)cc1)c1ccc(C)cc21 (stereo not drawn) [compound 274] | 68

Given item Cc1ccc2c(c1)c1c(n2C2=C(c3ccc(F)cc3)CCC2)CCN(C)C1 [compound 301] , the value recorded as its inhibition at 0.1 µM is 87

Given item Cc1ccc2c(c1)c1c(n2CC(c2cnccn2)N(C)C)CCN2CCCC12 (stereo not drawn) [II-7] , the value recorded as its inhibition at 0.1 µM is 52

Given item C/C(=C\n1c2c(c3cc(Cl)ccc31)CN(C)C(C)C2)c1ccc(C)nc1 (stereo not drawn) [compound 257] , the value recorded as its inhibition at 0.1 µM is 84

Given item C/C(=C/n1c2c(c3cc(C)ccc31)CN(C)CC2)c1cnn(C)c1 [compound 275] , the value recorded as its inhibition at 0.1 µM is 51

Given item C/C(=C\n1c2c(c3cc(C)ccc31)CN(C)CC2)c1ccncc1 [II-2] , the value recorded as its inhibition at 0.1 µM is 49

Given item Cc1ccc2c(c1)c1c(n2C#Cc2ccncc2)CCN(C)C1 [compound 264] , the value recorded as its inhibition at 0.1 µM is 81

Given item Cc1cnc2c(c1)c1c(n2CCc2ccc(F)cc2)CCN2CCCC12 (stereo not drawn) [compound 336] , the value recorded as its inhibition at 0.1 µM is 66

Given item Cc1ccc2c(c1)c1c(n2C2=C(c3ccnn3C)CCC2)CCN(C)C1 [compound 309] , the value recorded as its inhibition at 0.1 µM is 57

Given item Cc1ccc2c(c1)c1c(n2CCc2nc(-c3ccc(Cl)cc3)cs2)CCN(C)C1 [compound 326] , the value recorded as its inhibition at 0.1 µM is 51

Given item OCc1ccc2c(c1)c1c(n2CC(O)c2ccncc2)CCNC1 (stereo not drawn) [II-81] , the value recorded as its inhibition at 0.1 µM is 15

Given item COc1ccc(/C(C)=C/n2c3c(c4cc(Cl)ccc42)CCN(C)CC3)cc1 [compound 246] , the value recorded as its inhibition at 0.1 µM is 86

Given item Cc1ccc2c(c1)c1c(n2CCc2cccc(C)n2)CCN(C)C1 [compound 297] , the value recorded as its inhibition at 0.1 µM is 50

---

biological target: human recombinant adrenergic α1D receptor (Homo sapiens, UniProt P25100); construct: expressed in transfected cells; host or cells: HEK-293; assay: Radioligand binding, adrenergic α1D ([3H]Prazosin); details: read-out: Percentage inhibition of ligand binding, Adrenergic α1D (0.03 μM), compound at 0.03 μM; [3H]Prazosin; repeat datapoints each shown
# key: entry, value: inhibition at 0.03 µM
State just the number; it will be interpreted in %.

Observe how each entry below is paired with its result.
C/C(=C\n1c2c(c3cc(Cl)ccc31)CN(C)CC2)c1ccncc1 [compound 185] | 47
Cc1ccc2c(c1)c1c(n2CCc2ccc(CO)nc2)CCN(C)C1 [compound 91] | 21

Given item Cc1ccc2c(c1)c1c(n2CNc2ccccn2)CCN(C)C1 [compound 120] , the value recorded as its inhibition at 0.03 µM is 3

Given item Cc1ccc2c(c1)c1c(n2CCc2ccc(Cl)cc2)CCN(C)C1 [compound 184] , the value recorded as its inhibition at 0.03 µM is 24

Given item CN1CCc2c(c3cc(Cl)ccc3n2CCc2ccc(Cl)cc2)C1 [compound 213] , the value recorded as its inhibition at 0.03 µM is 53

Given item CN1CCc2c(c3cc(F)ccc3n2CCc2ccc(F)cc2)C1 [compound 219] , the value recorded as its inhibition at 0.03 µM is 3

Given item COc1ccc(CCn2c3c(c4cc(C)ccc42)CN(C)CC3)cc1 [compound 218] , the value recorded as its inhibition at 0.03 µM is 60

Given item CN1CCc2c(c3cc(Cl)ccc3n2CCc2ccccc2)C1 [compound 207] , the value recorded as its inhibition at 0.03 µM is 39

Given item Cc1ccc(CCn2c3c(c4cc(Cl)ccc42)CN(C)CC3)cc1 [compound 208] , the value recorded as its inhibition at 0.03 µM is 41

Given item CN1CCc2c(c3cccc(Cl)c3n2CCc2ccccc2)C1 [compound 216] , the value recorded as its inhibition at 0.03 µM is 38

Given item Cc1ccc2c(c1)c1c(n2CCc2ccc(F)cc2)CCN(C)C1 [compound 206] , the value recorded as its inhibition at 0.03 µM is 42

Given item C/C(=C\n1c2c(c3cc(C)ccc31)CN(C)CC2)c1ccc(C)nc1 [compound 186] , the value recorded as its inhibition at 0.03 µM is 31

---

Biological target: human recombinant adrenergic α2A receptor (Homo sapiens, UniProt P08913)
Construct: expressed in transfected cells; host or cells: insect Sf9 cells
Sequence (P08913 1-465): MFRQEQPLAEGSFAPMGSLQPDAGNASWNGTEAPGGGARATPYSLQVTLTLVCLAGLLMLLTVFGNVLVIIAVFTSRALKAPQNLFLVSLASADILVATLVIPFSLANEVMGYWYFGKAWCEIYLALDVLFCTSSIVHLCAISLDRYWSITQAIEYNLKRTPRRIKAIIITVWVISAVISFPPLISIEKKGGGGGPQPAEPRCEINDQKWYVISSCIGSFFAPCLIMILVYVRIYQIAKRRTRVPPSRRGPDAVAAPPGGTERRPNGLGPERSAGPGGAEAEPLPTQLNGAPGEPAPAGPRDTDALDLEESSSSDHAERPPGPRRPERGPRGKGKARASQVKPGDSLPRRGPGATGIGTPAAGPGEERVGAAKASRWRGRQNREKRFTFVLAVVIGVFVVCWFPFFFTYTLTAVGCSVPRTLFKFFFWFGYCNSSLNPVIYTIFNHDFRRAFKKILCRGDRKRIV
Experiment: Radioligand binding, adrenergic α2A ([3H]MK-912)
Conditions: compound at 0.1 μM; [3H]MK-912; repeat assays, each datapoint shown; 0.1 µM
# key: entry, value: Percentage inhibition of ligand binding, Adrenergic α2A
State just the number; it will be interpreted in %.

Cc1ccc2c(c1)c1c(n2CC(C)(O)c2cccnc2)CCNC1 (single isomer, unassigned) [24b] | 15
Cc1ccc2c(c1)c1c(n2CC(C)(O)c2ccc(F)cc2)CCN(C)C1 (single isomer, unassigned) [90b] | 82
Cc1ccc2c(c1)c1c(n2CC(O)c2cccnc2)CCNC1 (single isomer, unassigned) [9b] | 10
Cc1cnc2c(c1)c1c(n2CCc2ccc(C)nc2)CCN2CCCC12 (centres unmarked) [compound 74] | 6
CN1CCc2c(c3cc(C(C)(C)O)ccc3n2CC(O)c2ccncc2)C1 (single isomer, unassigned) [23b] | 1
Cc1ccc2c(c1)c1c(n2CC(C)(O)c2ccc(F)cc2)CCN(C)C1 (single isomer, unassigned) [90a] | 71
Cc1ccc2c(c1)c1c(n2CC(O)c2ccc(F)cc2)CN(C)CC1 (single isomer, unassigned) [18b] | 32

Next item in the queue.
Given item CC(C)(O)CCN1CCc2c(c3cc(Cl)ccc3n2CC(O)c2ccncc2)C1 (single isomer, unassigned) [11b] , the value recorded as its Percentage inhibition of ligand binding, Adrenergic α2A is 13
